# protocol.description: Toxicity in iv dosed drug naive Kunming mouse assessed as mouse survival dosed at 2 times anesthetic ED50
# Assay type: organism-based
# condition: in vivo
Assignment: determine reported survival for the given compounds.
Kindly answer with a numeric value in %, unit omitted.

Task: If you can, please state the reported survival value of "CC(C)c1cccc(C(C)C)c1OC(=O)CSCC(=O)[O-].[Na+]" .
Output: 0

Task: If you can, please state the reported survival value of "CC(C)c1cccc(C(C)C)c1OC(=O)COC(=O)CCC(=O)[O-].[Na+]" .
Output: 80

Task: If you can, please state the reported survival value of CC(C)c1cccc(C(C)C)c1OC(=O)COC(=O)C1CCCCN1.Cl (stereo not given) .
Output: 20

Task: If you can, please state the reported survival value of "CC(C)c1cccc(C(C)C)c1OC(=O)COC(=O)CN1CCOCC1.Cl" .
Output: 100

Task: If you can, please state the reported survival value of "CC(C)c1cccc(C(C)C)c1OC(=O)CN1CCOCC1" .
Output: 30

Task: If you can, please state the reported survival value of CC(C)c1cccc(C(C)C)c1OCOP(=O)([O-])[O-].[Na+].[Na+] [FOSPROPOFOL DISODIUM] .
Output: 100

Task: If you can, please state the reported survival value of "CC(C)c1cccc(C(C)C)c1OC(=O)COC(=O)CC(=O)[O-].[Na+]" .
Output: 100

Task: If you can, please state the reported survival value of "CC(C)c1cccc(C(C)C)c1O" .
Output: 100

Task: If you can, please state the reported survival value of "CC(C)c1cccc(C(C)C)c1OC(=O)COC(=O)CN.Cl" .
Output: 10

Task: If you can, please state the reported survival value of "CC(C)c1cccc(C(C)C)c1OC(=O)COCC(=O)[O-].[Na+]" .
Output: 100

----------
# protocol.description: Toxicity in iv dosed drug naive Kunming mouse
# Type: organism-based
# condition: in vivo
Assignment: determine reported LD50 for the given molecules.
Kindly answer with a numeric value in mg/kg, unit omitted.

Task: If you can, please state the reported LD50 value of "CC(C)c1cccc(C(C)C)c1OC(=O)COC(=O)CN1CCCCC1.Cl" .
Output: 91.4

Task: If you can, please state the reported LD50 value of CC(C)c1cccc(C(C)C)c1OCOP(=O)([O-])[O-].[Na+].[Na+] [FOSPROPOFOL DISODIUM] .
Output: 288

Task: If you can, please state the reported LD50 value of CC(C)c1cccc(C(C)C)c1O [PROPOFOL] .
Output: 52.2

Task: If you can, please state the reported LD50 value of "CC(C)c1cccc(C(C)C)c1OC(=O)COC(=O)CN1CCCC1.Cl" .
Output: 92.1

Task: If you can, please state the reported LD50 value of "CC(C)c1cccc(C(C)C)c1OC(=O)CSCC(=O)[O-].[Na+]" .
Output: 222

Task: If you can, please state the reported LD50 value of "CC(C)c1cccc(C(C)C)c1OC(=O)COC(=O)CN1CCOCC1.Cl" .
Output: 132

Task: If you can, please state the reported LD50 value of "CC(C)c1cccc(C(C)C)c1OC(=O)COC(=O)CC(=O)[O-].[Na+]" .
Output: 244

Task: If you can, please state the reported LD50 value of "CC(C)c1cccc(C(C)C)c1OC(=O)CN1CCOCC1" .
Output: 75

Task: If you can, please state the reported LD50 value of "CNCC(=O)OCC(=O)Oc1c(C(C)C)cccc1C(C)C.Cl" .
Output: 60.8

Task: If you can, please state the reported LD50 value of "CC(C)c1cccc(C(C)C)c1OC(=O)COC(=O)CCC(=O)[O-].[Na+]" .
Output: 205

Task: If you can, please state the reported LD50 value of "CC(C)c1cccc(C(C)C)c1OC(=O)COC(=O)CN(C)C.Cl" .
Output: 93.8

Task: If you can, please state the reported LD50 value of "CC(C)c1cccc(C(C)C)c1OC(=O)COC(=O)CN.Cl" .
Output: 89.2

Task: If you can, please state the reported LD50 value of "CC(C)c1cccc(C(C)C)c1OC(=O)COC(=O)CN1CCN(C)CC1.Cl" .
Output: 91.6

Task: If you can, please state the reported LD50 value of CC(C)c1cccc(C(C)C)c1OC(=O)COC(=O)C1COCCN1.Cl (stereo unspecified) .
Output: 69.6

Task: If you can, please state the reported LD50 value of CC(C)c1cccc(C(C)C)c1OC(=O)COC(=O)C1CCCCN1.Cl (stereo unspecified) .
Output: 54.4

Task: If you can, please state the reported LD50 value of "CC(C)c1cccc(C(C)C)c1OC(=O)COC(=O)[C@H](C)N.Cl" .
Output: 51.9
